Data origin, for the record: ChEMBL document CHEMBL1255336

assay name: AUC(0 to infinity) in fasting healthy human at 1000 mg, po administered as single dose measured after 48 hrs
Type: ADME, organism-based
Parameters: dose 1000 mg, time infinity, route oral
details: plasma
experimental endpoint: AUC(0-inf) (ng·h/mL)

> print(dat)
                               smiles.input  reported.measurement
1  O=C(NN1C(=O)[C@@H]2[C@@H]3C=C[C@@H]([C@H]4C[C@@H]34)[C@@H]2C1=O)c1ccc(C(F)(F)F)cc1                 24900

====

assay name: Apparent oral clearance in nonfasting healthy human at 1000 mg, po administered as single dose measured after 72 hrs
Format: ADME, organism-based
details: in vivo
experimental endpoint: CL/F (mL/min)

> print(dat)
                               smiles.input  quantity.unit  reported.measurement
1  O=C(NN1C(=O)[C@@H]2[C@@H]3C=C[C@@H]([C@H]4C[C@@H]34)[C@@H]2C1=O)c1ccc(C(F)(F)F)cc1         mL/min                   500

====

assay name: Plasma clearance in fasting healthy human at 500 mg, po administered as single dose measured after 48 hrs
Format: ADME, organism-based
experimental endpoint: CL/F (mL/min)

> print(dat)
                               smiles.input  reported.measurement
1  O=C(NN1C(=O)[C@@H]2[C@@H]3C=C[C@@H]([C@H]4C[C@@H]34)[C@@H]2C1=O)c1ccc(C(F)(F)F)cc1                   860

====

assay name: AUC(0 to infinity) in nonfasting healthy human at 1000 mg, po administered as single dose measured after 72 hrs
Type: ADME, organism-based
Set-up: dose 1000 mg, time infinity, route oral
details: plasma
experimental endpoint: AUC(0-inf) (ng·h/mL)

> print(dat)
                               smiles.input  quantity.unit  reported.measurement
1  O=C(NN1C(=O)[C@@H]2[C@@H]3C=C[C@@H]([C@H]4C[C@@H]34)[C@@H]2C1=O)c1ccc(C(F)(F)F)cc1        ng·h/mL                 35900

====

assay name: AUClast in fasting healthy human at 2000 mg, po administered as single dose measured after 48 hrs
Type: ADME, organism-based
Parameters: time < 48 hr, dose 2000 mg, route oral
details: plasma
experimental endpoint: AUC(0-t) at 48 h (ng·h/mL)

> print(dat)
                               smiles.input  reported.measurement
1  O=C(NN1C(=O)[C@@H]2[C@@H]3C=C[C@@H]([C@H]4C[C@@H]34)[C@@H]2C1=O)c1ccc(C(F)(F)F)cc1                 24500

====

assay name: Plasma clearance in fasting healthy human at 2000 mg, po administered as single dose measured after 48 hrs
Assay type: ADME, organism-based
experimental endpoint: CL/F

> print(dat)
                                   compound  experimental.endpoint  reported.measurement
1  O=C(NN1C(=O)[C@@H]2[C@@H]3C=C[C@@H]([C@H]4C[C@@H]34)[C@@H]2C1=O)c1ccc(C(F)(F)F)cc1 [TECOVIRIMAT]                   CL/F           1290 mL/min

====

assay name: Terminal half life in nonfasting healthy human at 1000 mg, po administered as single dose measured after 72 hrs
Format: ADME, organism-based
details: in vivo
experimental endpoint: half-life (h)

> print(dat)
                               smiles.input  experimental.endpoint  reported.measurement
1  O=C(NN1C(=O)[C@@H]2[C@@H]3C=C[C@@H]([C@H]4C[C@@H]34)[C@@H]2C1=O)c1ccc(C(F)(F)F)cc1              half-life                    17

====

assay name: Tmax in nonfasting healthy human at 1000 mg, po administered as single dose measured after 72 hrs
Assay type: ADME, organism-based
details: in vivo
experimental endpoint: Tmax (h)

> print(dat)
                               smiles.input  quantity.unit  reported.measurement
1  O=C(NN1C(=O)[C@@H]2[C@@H]3C=C[C@@H]([C@H]4C[C@@H]34)[C@@H]2C1=O)c1ccc(C(F)(F)F)cc1              h                     5

====

assay name: Plasma clearance in fasting healthy human at 1000 mg, po administered as single dose measured after 48 hrs
Type: ADME, organism-based
experimental endpoint: CL/F (mL/min)

> print(dat)
                                   molecule  reported.measurement
1  O=C(NN1C(=O)[C@@H]2[C@@H]3C=C[C@@H]([C@H]4C[C@@H]34)[C@@H]2C1=O)c1ccc(C(F)(F)F)cc1 [TECOVIRIMAT]                   838

====

assay name: Median half life in fasting healthy human at 2000 mg, po administered as single dose measured after 48 hrs
Format: ADME, organism-based
details: in vivo
experimental endpoint: half-life (h)

> print(dat)
                                   compound  reported.measurement
1  O=C(NN1C(=O)[C@@H]2[C@@H]3C=C[C@@H]([C@H]4C[C@@H]34)[C@@H]2C1=O)c1ccc(C(F)(F)F)cc1 [TECOVIRIMAT]                  18.9

====

assay name: Tmax in fasting healthy human at 500 mg, po administered as single dose measured after 48 hrs
Type: ADME, organism-based
details: in vivo
experimental endpoint: Tmax

> print(dat)
                               smiles.input  reported.measurement
1  O=C(NN1C(=O)[C@@H]2[C@@H]3C=C[C@@H]([C@H]4C[C@@H]34)[C@@H]2C1=O)c1ccc(C(F)(F)F)cc1                   2 h

====

assay name: Cmax in fasting healthy human at 2000 mg, po administered as single dose measured after 48 hrs
Format: ADME, organism-based
Parameters: dose 2000 mg, route oral
details: in vivo
experimental endpoint: Cmax (µg/mL)

> print(dat)
                               smiles.input  experimental.endpoint  reported.measurement
1  O=C(NN1C(=O)[C@@H]2[C@@H]3C=C[C@@H]([C@H]4C[C@@H]34)[C@@H]2C1=O)c1ccc(C(F)(F)F)cc1                   Cmax                  2.55

====

assay name: Cmax in nonfasting healthy human at 1000 mg, po administered as single dose measured after 72 hrs
Type: ADME, organism-based
Parameters: dose 1000 mg, route oral
details: in vivo
experimental endpoint: Cmax (ng/mL)

> print(dat)
                               smiles.input  reported.measurement
1  O=C(NN1C(=O)[C@@H]2[C@@H]3C=C[C@@H]([C@H]4C[C@@H]34)[C@@H]2C1=O)c1ccc(C(F)(F)F)cc1                  2930

====

assay name: AUClast in nonfasting healthy human at 1000 mg, po administered as single dose measured after 72 hrs
Assay type: ADME, organism-based
Design: time < 72 hr, dose 1000 mg, route oral
details: plasma
experimental endpoint: AUC(0-t) at 72 h (ng·h/mL)

> print(dat)
                               smiles.input  reported.measurement
1  O=C(NN1C(=O)[C@@H]2[C@@H]3C=C[C@@H]([C@H]4C[C@@H]34)[C@@H]2C1=O)c1ccc(C(F)(F)F)cc1                 34100

====

assay name: AUClast in fasting healthy human at 500 mg, po administered as single dose measured after 48 hrs
Format: ADME, organism-based
Set-up: dose 500 mg, time < 48 hr, route oral
details: plasma
experimental endpoint: AUC(0-t) at 48 h (ng·h/mL)

> print(dat)
                               smiles.input  quantity.unit  reported.measurement
1  O=C(NN1C(=O)[C@@H]2[C@@H]3C=C[C@@H]([C@H]4C[C@@H]34)[C@@H]2C1=O)c1ccc(C(F)(F)F)cc1        ng·h/mL                  9880

====

assay name: Cmax in fasting healthy human at 500 mg, po administered as single dose measured after 48 hrs
Type: ADME, organism-based
Design: dose 500 mg, route oral
details: in vivo
experimental endpoint: Cmax (ng/mL)

> print(dat)
                               smiles.input  experimental.endpoint  reported.measurement
1  O=C(NN1C(=O)[C@@H]2[C@@H]3C=C[C@@H]([C@H]4C[C@@H]34)[C@@H]2C1=O)c1ccc(C(F)(F)F)cc1                   Cmax                   934
